Source: paper PMC10175095

# ASSAY COMMENT: Freeze-thaw stability of unprocessed plasma samples
# Assay type: in vitro ADME
# STATED CONDITIONS: human plasma, 3 freeze (-80°C)-thaw cycles, nominal 1500 ng/mL
REPORTED PROPERTY: Accuracy vs fresh QCs (%)

1. CCN1CCN(Cc2ccc(Nc3ncc(F)c(-c4cc(F)c5nc(C)n(C(C)C)c5c4)n3)nc2)CC1 [Abemaciclib, abemaciclib] = 98.8
2. Cc1nc2c(F)cc(-c3nc(Nc4ccc(CN5CCNCC5)cn4)ncc3F)cc2n1C(C)C [Abemaciclib-M2] = 98.2
3. CN(C)C(=O)c1cc2cnc(Nc3ccc(N4CCNCC4)cn3)nc2n1C1CCCC1 [Ribociclib, ribociclib] = 97.1
4. CC(=O)c1c(C)c2cnc(Nc3ccc(N4CCNCC4)cn3)nc2n(C2CCCC2)c1=O [Palbociclib, palbociclib] = 98.7

* * *

# ASSAY COMMENT: Pre-processed stability in human plasma
# Type: in vitro ADME
# STATED CONDITIONS: RT (20–25°C), yellow light, 2.5 h, nominal 15 ng/mL
REPORTED PROPERTY: Accuracy vs fresh QCs (%)

1) CCN1CCN(Cc2ccc(Nc3ncc(F)c(-c4cc(F)c5nc(C)n(C(C)C)c5c4)n3)nc2)CC1 = 99.4
2) CC(=O)c1c(C)c2cnc(Nc3ccc(N4CCNCC4)cn3)nc2n(C2CCCC2)c1=O = 95.6
3) CN(C)C(=O)c1cc2cnc(Nc3ccc(N4CCNCC4)cn3)nc2n1C1CCCC1 = 98.0
4) Cc1nc2c(F)cc(-c3nc(Nc4ccc(CN5CCNCC5)cn4)ncc3F)cc2n1C(C)C = 96.6

* * *

# ASSAY COMMENT: Reinjection stability in final extract
# Assay type: physicochemical
# STATED CONDITIONS: reinjected, 4°C, autosampler, 25.95 h, nominal 1500 ng/mL
REPORTED PROPERTY: Mean measured concentration (ng/mL)

1) CC(=O)c1c(C)c2cnc(Nc3ccc(N4CCNCC4)cn3)nc2n(C2CCCC2)c1=O = 1473
2) Cc1nc2c(F)cc(-c3nc(Nc4ccc(CN5CCNCC5)cn4)ncc3F)cc2n1C(C)C = 1557
3) CN(C)C(=O)c1cc2cnc(Nc3ccc(N4CCNCC4)cn3)nc2n1C1CCCC1 = 1503
4) CCN1CCN(Cc2ccc(Nc3ncc(F)c(-c4cc(F)c5nc(C)n(C(C)C)c5c4)n3)nc2)CC1 = 1527

* * *

# ASSAY COMMENT: Freeze-thaw stability of unprocessed plasma samples
# Assay type: in vitro ADME
# STATED CONDITIONS: human plasma, 3 freeze (-80°C)-thaw cycles, nominal 1500 ng/mL
REPORTED PROPERTY: Mean measured concentration (ng/mL)

1) CC(=O)c1c(C)c2cnc(Nc3ccc(N4CCNCC4)cn3)nc2n(C2CCCC2)c1=O [Palbociclib, palbociclib] = 1453
2) CCN1CCN(Cc2ccc(Nc3ncc(F)c(-c4cc(F)c5nc(C)n(C(C)C)c5c4)n3)nc2)CC1 [Abemaciclib, abemaciclib] = 1480
3) Cc1nc2c(F)cc(-c3nc(Nc4ccc(CN5CCNCC5)cn4)ncc3F)cc2n1C(C)C [Abemaciclib-M2] = 1493
4) CN(C)C(=O)c1cc2cnc(Nc3ccc(N4CCNCC4)cn3)nc2n1C1CCCC1 [Ribociclib, ribociclib] = 1457
